tested on: mESC Bmi1-luciferase reporter, firefly/renilla ratio, 24 h; test: compounds raising Bmi1 reporter signal – mouse embryonic stem cells, luciferase, cherry-pick, esBAF inhibitor project, dose response (AID 651717);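 also: luciferase knocked into Bmi1 locus with EF-1a renilla as cell number control; rising ratio signals esBAF inhibition which derepresses Bmi1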
Hi there, I'd appreciate the recorded AC40 for every entry that follows.

For the molecule `N#Cc1ccc(Nc2nc(-c3ccccc3)cs2)cc1` , report AC40.
3.97 µM

For the molecule `C(=NN=Cc1c[nH]c2ccccc12)c1c[nH]c2ccccc12` , report AC40.
3.9 µM

For the molecule `COc1ccc(Cl)cc1C(=O)NNC(=O)c1cccs1` , report AC40.
4.75 µM

For the molecule `CC(=O)Nc1cc2c3c(cccc3c1)-c1ccccc1-2` , report AC40.
5.23 µM

For the molecule `CC1(C)C=Cc2cc(-c3coc4cc(O)cc(O)c4c3=O)cc(O)c2O1` , report AC40.
4.93 µM

For the molecule `Cc1ccc(O)c(NC(=O)c2ccc3c(c2)C(=O)N(CC(C)C)C3=O)c1` , report AC40.
1.23 µM

###

test system: mESC Bmi1-luciferase reporter, firefly/renilla ratio, 24 h; assay: compounds raising Bmi1 reporter signal – mouse embryonic stem cells, luciferase, cherry-pick, esBAF inhibitor project, dose response (AID 651717);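 also: luciferase knocked into Bmi1 locus with EF-1a renilla as cell number control; rising ratio signals esBAF inhibition which derepresses Bmi1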
Hi there, I'd appreciate the recorded AC40 for every entry that follows.

For the molecule COC(=O)N1CCCC(c2cc(C(=O)Nc3ccccc3Cl)no2)C1 (stereo unspecified) , report AC40.
3.3 µM

For the molecule `CN(C)c1ccc(C(=O)c2ccccc2)cc1` , report AC40.
2.69 µM

For the molecule `O=C(COc1ccc(/C=N/NC(=O)c2cc3ccccc3o2)cc1Br)Nc1ccccc1` , report AC40.
4.24 µM

For the molecule `COc1cc2ccccc2cc1C(=O)Nc1ccc(Br)cn1` , report AC40.
0.489 µM

For the molecule CC1CCC(NC(=O)c2cc3ccccc3cc2O)CC1 (stereo unspecified) , report AC40.
0.967 µM

For the molecule `COc1cc2[nH]c(C(=O)N3CCc4ccccc43)cc2c(OC)c1OC` , report AC40.
2.77 µM

###

system: mESC Bmi1-luciferase reporter, firefly/renilla ratio, 24 h; assay: compounds raising Bmi1 reporter signal – mouse embryonic stem cells, luciferase, cherry-pick, esBAF inhibitor project, dose response (AID 651717);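 also: luciferase knocked into Bmi1 locus with EF-1a renilla as cell number control; rising ratio signals esBAF inhibition which derepresses Bmi1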
Hi there, I'd appreciate the recorded AC40 for every entry that follows.

For the compound `COc1ccc(CNC(=O)Nc2cccc(C)c2)cc1` , report AC40.
5.8 µM

For the compound `C=CCNc1nc(NCc2ccc(NC(C)=O)cc2)c2sc(-c3ccccc3)cc2n1` , report AC40.
0.635 µM

For the compound `O=c1ccc2ccc(OCc3ccccc3)cc2o1` , report AC40.
3.55 µM

For the compound `N#Cc1ccc(C=NN2CCCCCC2)cc1` , report AC40.
2.62 µM

For the compound `Cc1csc(SCCN2C(=O)c3ccccc3C2=O)n1` , report AC40.
3.17 µM

For the compound `Cc1ccc(OCc2cc(C(=O)N(C)CCc3ccccn3)no2)cc1C` , report AC40.
2.28 µM

For the compound `O=C(COC(=O)[C@H](Cc1c[nH]c2ccccc12)NC(=O)c1ccc(Cl)cc1)Nc1ccc2c(c1)OCO2` , report AC40.
10.5 µM

For the compound `N/C(=N\OC(=O)c1cccnc1)c1ccccc1Cl` , report AC40.
23.6 µM

For the compound O=C(Nc1ccccc1)c1cc(C2CCCN(C(=O)CCc3ccccc3)C2)on1 (stereo unspecified) , report AC40.
5.03 µM

For the compound `CC(=O)N(/N=C1\Sc2ccccc2C1=O)c1ccccc1` , report AC40.
< 0.26 µM

For the compound `CC(=O)c1c(C)[nH]c(C(=O)OCc2ccc(Br)cc2)c1C` , report AC40.
6.96 µM
